target: Coagulation factor X (Homo sapiens)
Mark each entry rule met if its Ki sits below 1000 nM, and rule not met for all others.

INPUT: For CCN(Cc1cc[n+](C)cc1)C(=O)c1cc2ccccc2n1Cc1cccc(C(=N)N)c1 , is the recorded Ki below the cut-off of 1000 nM?
OUTPUT: rule met

---

Coagulation factor X (Homo sapiens, UniProt P00742) measurements of log10 of Ki, listed per entry.
Sequence (P00742 41-179 limits assumed): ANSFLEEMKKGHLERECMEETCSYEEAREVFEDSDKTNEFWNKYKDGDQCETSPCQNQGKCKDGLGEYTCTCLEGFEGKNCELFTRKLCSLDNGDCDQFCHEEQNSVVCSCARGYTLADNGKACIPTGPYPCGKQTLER
Sequence (P00742 235-488 limits assumed): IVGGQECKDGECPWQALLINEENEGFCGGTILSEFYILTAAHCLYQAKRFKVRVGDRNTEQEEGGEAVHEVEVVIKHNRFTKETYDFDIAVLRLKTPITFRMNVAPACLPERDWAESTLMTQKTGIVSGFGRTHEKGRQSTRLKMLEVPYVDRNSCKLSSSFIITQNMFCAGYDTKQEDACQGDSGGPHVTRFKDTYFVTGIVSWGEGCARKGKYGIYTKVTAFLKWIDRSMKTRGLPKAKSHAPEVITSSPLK
Note the log scale: values are log10 of Ki expressed in nM.

Worked cases, answers included:
{"testSmiles": "Cc1cccc2c1cc(C(=O)NCc1cccc3ccccc13)n2Cc1cccc(C(=N)N)c1", "numericValue": 1.98}
{"testSmiles": "N=C(N)c1cccc(Cn2c(C(=O)NCCNc3cccc4ccccc34)cc3c(O)cccc32)c1", "numericValue": 2.50}
{"testSmiles": "N=C(N)c1cccc(Cn2c(C(=O)NCCc3ccc(Cl)cc3)cc3c(O)cccc32)c1", "numericValue": 3.19}

INPUT: Find log10 of Ki for C[N+](C)(C)c1ccc(CNC(=O)c2cc3cc([N+](=O)[O-])ccc3n2Cc2cccc(C(=N)N)c2)cc1 on Coagulation factor X (Homo sapiens, UniProt P00742) and write it down.
OUTPUT: 2.16

INPUT: Find log10 of Ki for N=C(N)c1cccc(Cn2c(C(=O)NCc3cc(C(F)(F)F)cc(C(F)(F)F)c3)cc3c(O)cccc32)c1 on Coagulation factor X (Homo sapiens, UniProt P00742) and write it down.
OUTPUT: 2.00
